Several publications report pKi on Receptor-interacting serine/threonine-protein kinase 1 (Homo sapiens, UniProt Q13546); those values are gathered here.
In plain terms, pKi is the concentration in mol/L turned into minus its base-10 logarithm.

1) O=S(=O)(c1nc2n(n1)[C@H](c1cccc(F)c1F)C[C@@H]2F)[C@H]1C[C@H](F)C1: 7.80
2) O=C(c1nc2n(n1)[C@H](c1ccccc1)C[C@@H]2F)N1CCC[C@@H]1C(F)(F)F (racemic): 6.46
3) O=S(=O)(c1nc2n(n1)[C@H](c1cc(F)cc(Cl)c1)C[C@@H]2F)C1CC1F (stereo in doubt): 7.32

Read the next record carefully.
GET /values?readout=pKi&system=Receptor-interacting serine/threonine-protein kinase 1 (Homo sapiens, UniProt Q13546)&item= CS(=O)(=O)c1cnn(-c2nc3n(n2)[C@H](c2ccccc2)C[C@@H]3F)c1 (single isomer, unassigned)
6.72

###

Several publications report pKi on Receptor-interacting serine/threonine-protein kinase 1 (Homo sapiens); those values are gathered here.
In plain terms, pKi is the concentration in mol/L turned into minus its base-10 logarithm.

Example entries and their recorded answers appear below.
1. C[C@H]1[C@@H](C(F)(F)F)CCN1C(=O)c1nc2n(n1)[C@H](c1ccccc1)C[C@@H]2F (single isomer, unassigned): 8.30
2. O=C(c1nc2n(n1)[C@H](c1ccccc1)C[C@@H]2F)N1CC(C(F)F)C1 (racemic): 7.00
3. F[C@H](c1nc2n(n1)[C@H](c1ccccc1)C[C@@H]2F)C1CC1 (single isomer, unassigned): 7.92

Dear colleague, I am looking for the recorded pKi of the following molecule: O=S(=O)(c1nc2n(n1)[C@H](c1ccc(F)cc1)C[C@@H]2F)C1CC1F (stereo in doubt)
8.10

Can you check O=C(c1nc2n(n1)CCOC2c1ccccc1)N1CC(F)(F)C1 (racemic) next?
6.11

###

Several publications report pKi on Receptor-interacting serine/threonine-protein kinase 1 (Homo sapiens); those values are gathered here.
In plain terms, pKi is the concentration in mol/L turned into minus its base-10 logarithm.

Example entries and their recorded answers appear below.
1) [2H]C([2H])([2H])N1C(=O)[C@@H](NC(=O)c2cc3n(n2)CCO[C@H]3c2ccccc2)COc2cccnc21: 7.55
2) CCC(O)c1nc2n(n1)[C@H](c1ccccc1)C[C@@H]2F (stereo partly shown): 6.39
3) O=C(c1nc2n(n1)C(c1ccccc1)CC2)N1CC(F)(F)C1 (racemic): 6.98
4) CN1C(=O)[C@@H](NC(=O)c2nc3n(n2)[C@H](c2ccccc2F)CC3)CCc2cc(=O)n(C)cc21 (single isomer, unassigned): 6.64
5) O=C(c1nc2n(n1)[C@H](c1ccccc1)C[C@@H]2F)N1CCc2ccccc2C1 (stereo in doubt): 7.89

Read the next record carefully.
Dear colleague, I am looking for the recorded pKi of the following molecule: CN1C(=O)[C@@H](NC(=O)c2ncn(Cc3ccccc3F)n2)CCc2cn(C)c(=O)cc21 (single isomer, unassigned)
7.31

###

Several publications report pKi on Receptor-interacting serine/threonine-protein kinase 1 (Homo sapiens); those values are gathered here.
In plain terms, pKi is the concentration in mol/L turned into minus its base-10 logarithm.

Example entries and their recorded answers appear below.
1) O=C(c1nc2n(n1)[C@H](c1ccccc1)C[C@@H]2F)N1CCC[C@@H]1CO (racemic): 6.16
2) Cc1cc(C#N)nn1-c1nc2n(n1)[C@H](c1ccccc1)C[C@@H]2F (single isomer, unassigned): 7.89
3) O=C(c1nc2n(n1)[C@@H](c1ccccc1)C[C@H]2F)N1CC2CC2C1 (mixture of isomers): 7.09

Dear colleague, I am looking for the recorded pKi of the following compound: O=S(=O)(c1nc2n(n1)[C@H](c1ccccc1Cl)C[C@@H]2F)C1CC1 (single isomer, unassigned)
8.52

Can you check F[C@H]1C[C@@H](c2ccccc2)n2nc(-n3nnc4cc(Cl)ccc43)nc21 (racemic) next?
8.04

Can you check FC1CC(c2ccccc2)n2nc(C(F)(F)F)nc21 (racemic) next?
6.89

Can you check CC(C)(C)[S+]([O-])c1nc2n(n1)[C@H](c1ccccc1)C[C@@H]2F (stereo partly drawn) next?
7.70
